Tested on: MDA-MB-435 melanoma
PROTOCOL SUMMARY: NCI-60 one-dose screen, 48 h
CONDITION INFO: 10 µM
This is part of a sample that, as a whole, favours compounds with a hit. Of some 83,000 tested, about 20% had one in any assay. Activity calls are given as the source filed them. How the source made its calls: active means growth percent below 10; inactive means the rest.
Hello, when you answer, please use one of the following outcomes: active, inactive

COMPOUND: COc1cc(OC)c2ccc(=O)oc2c1
QUALITATIVE LABEL: inactive
--
COMPOUND: COc1ccc(C)cc1OC
QUALITATIVE LABEL: inactive
--
COMPOUND: COC(=O)Nc1nc2ccc(C(=O)c3cccs3)cc2[nH]1
QUALITATIVE LABEL: active
--
COMPOUND: O=C(NCc1ccco1)Nc1c(Cl)cc(Cl)cc1Cl
QUALITATIVE LABEL: inactive
--
COMPOUND: CC1C(=O)c2ccccc2CC1C(=O)O (stereo not drawn)
QUALITATIVE LABEL: inactive

Any idea what this test logged for O=S(=O)(Cc1ccccc1)c1ccccc1 ?
inactive

CCN(CC)CCCC(C)Nc1ccnc(/C=C/c2ccc(Cl)cc2)c1 (stereo not drawn) ?
active

N#CCc1ccc([N+](=O)[O-])cc1 ?
inactive

NNc1ccccc1C(=O)O ?
inactive

O=C1C=C(O)C(=O)C=C1O ?
inactive

Nc1ccc(N=Nc2ccc(S(=O)(=O)O)cc2)c2ccccc12 ?
inactive

CCC/C=C(/C(C)=O)C(=O)OCC ?
inactive

O=c1cc(-c2ccccc2)[nH]c(=S)[nH]1 ?
inactive

Nc1ccccc1SC(CC(=O)c1ccccc1)c1c(Cl)cccc1Cl (stereo not drawn) ?
inactive

CCCCCCCCCCCCCC(=O)Oc1ccc[nH]c1=O ?
inactive

O=C(O)c1cccc([N+](=O)[O-])c1 ?
inactive

O=C(/C=C\c1ccc(O)cc1)c1ccccc1 ?
inactive

---

Tested on: NCI-H322M lung
PROTOCOL SUMMARY: NCI-60 one-dose screen, 48 h (100 = growth as untreated, 0 = no growth, -100 = all killed)
CONDITION INFO: 10 µM
Compounds without any hit were thinned out: in the full panel of roughly 83,000, 20% have a hit.
VALUE TYPE: growth (%)
Answers are plain numbers, in %.

COMPOUND: NC(CSC(c1ccccc1)(c1ccccc1)c1ccccc1)C(=O)O (centres undefined)
UNIT OF MEASURE: %
growth: 43.9
//
COMPOUND: Nc1ccc(CC(=O)O)c(N)c1
UNIT OF MEASURE: %
growth: 97.6
//
COMPOUND: c1ccc(Cc2ccccc2)cc1
UNIT OF MEASURE: %
growth: 96.2
//
COMPOUND: Cc1cc(=O)cc(C)n1-c1ccccc1
UNIT OF MEASURE: %
growth: 106
//
COMPOUND: COc1nc(N)nc2c1ncn2C1OC(CO)CC1O (centres undefined)
UNIT OF MEASURE: %
growth: 96.8
//
COMPOUND: CC1=CC(C)(C)NC(=S)N1c1ccc(S(=O)(=O)O)c2cccc(S(=O)(=O)O)c12
UNIT OF MEASURE: %
growth: 127
//
COMPOUND: COC1=CC(=O)c2nc(Cl)ccc2C1=O
UNIT OF MEASURE: %
growth: 106
//
COMPOUND: CC1CCC(C(=O)O)N1 (centres undefined)
UNIT OF MEASURE: %
growth: 95.2
//
COMPOUND: C[C@]12CC[C@@H]3c4ccc(OCC(=O)O)cc4CC[C@H]3[C@@H]1CCC2=O
UNIT OF MEASURE: %
growth: 98
//
COMPOUND: CC(=O)/C(Cc1ccccc1)=N/O
UNIT OF MEASURE: %
growth: 105

# return growth for each item in the list
1. CN(C)c1ccc2nc3ccc(=N)cc-3sc2c1
2. Oc1ccc(O)cc1
3. CCN(CC)C(=O)/C=C(/C)c1ccccc1
4. Oc1ccccc1-c1nnco1
5. CCCCCCCCOC(=O)c1ccccn1
6. COc1ccc2c(c1)CCc1c-2n[nH]c1-c1[nH]nc2c1CCc1cc(OC)ccc1-2
7. Nc1ccc(N)c([N+](=O)[O-])c1
8. CCOC(=O)C1=C(C)NC(=O)NC1c1cccs1 (centres undefined)

1: 85.4; 2: 106; 3: 106; 4: 89.9; 5: 98.9; 6: 90.5; 7: 101; 8: 111

---

System: SK-MEL-28 melanoma
PROTOCOL SUMMARY: NCI-60 one-dose screen, 48 h (100 = growth as untreated, 0 = no growth, -100 = all killed)
CONDITION INFO: 10 µM
About 83,000 compounds went through this panel and 20% of them were active in at least one assay; those are over-represented in the sample as a whole.
VALUE TYPE: growth (%)
Answers are plain numbers, in %.

Check out these entries, answers already filled in.
COMPOUND: CCCCCCCCCCC(C)Br (stereo not given)
SUBJECT OF TEST: SK-MEL-28 melanoma
UNIT OF MEASURE: %
growth: 112

COMPOUND: C[C@]12CC[C@@H]3c4ccc(OCC(=O)O)cc4CC[C@H]3[C@@H]1CCC2=O
SUBJECT OF TEST: SK-MEL-28 melanoma
UNIT OF MEASURE: %
growth: 118

COMPOUND: CN(C)c1ccc(S(=O)(=O)O)cc1
SUBJECT OF TEST: SK-MEL-28 melanoma
UNIT OF MEASURE: %
growth: 110

COMPOUND: CCCNc1ccc(C2=NCCCN2)cc1
SUBJECT OF TEST: SK-MEL-28 melanoma
UNIT OF MEASURE: %
growth: 114

COMPOUND: C/C(=C\c1cc(Cl)ccc1OCC(=O)O)[N+](=O)[O-]
SUBJECT OF TEST: SK-MEL-28 melanoma
UNIT OF MEASURE: %
growth: 118

COMPOUND: CCOC(=O)/C(=C/c1ccc(OC)cc1)N(CC)CC
SUBJECT OF TEST: SK-MEL-28 melanoma
UNIT OF MEASURE: %
growth: 112

COMPOUND: Nc1ccccc1SC(CC(=O)c1ccccc1)c1c(Cl)cccc1Cl (stereo not given)
SUBJECT OF TEST: SK-MEL-28 melanoma
UNIT OF MEASURE: %
growth: 90.8

COMPOUND: Nc1nc2c(c(-c3nc(N)nc4c3CCc3ccccc3-4)n1)CCc1ccccc1-2
SUBJECT OF TEST: SK-MEL-28 melanoma
UNIT OF MEASURE: %
growth: 115

# return growth for each item in the list
1. C=CCNc1nnc(C)s1
2. CC(=O)c1ccc(C(C)(C)C)cc1
3. CCOc1ccc(/C=C/C(=O)c2ccccc2)cc1
4. COc1cc(C(=O)N/N=C/c2cccc([N+](=O)[O-])c2)cc(OC)c1OC
5. COc1ccc(C2OC(N)=C(O)C2=O)cc1OC (stereo not given)
6. C=CCCCCCCCCCOC(C)=O
7. COC(=O)c1ccccc1N(C)C
8. O=C(CCl)Nc1ccc2c(c1)C(=O)c1ccc(NC(=O)CCl)cc1C2=O

[104, 120, 100, 62.1, 105, 112, 103, -40.6]

---

Test system: MOLT-4 leukemia
PROTOCOL SUMMARY: NCI-60 one-dose screen, 48 h (100 = growth as untreated, 0 = no growth, -100 = all killed)
CONDITION INFO: 10 µM
This is part of a sample that, as a whole, favours compounds with a hit. Of some 83,000 tested, about 20% had one in any assay.
VALUE TYPE: growth (%)
Numbers only, in %.

# return growth for each item in the list
1. CCN1C(=O)/C(=C/C=C/N(C)c2ccccc2)SC1=S
2. O=C(Nc1ccccc1C(=O)NCC1CC1)c1cccs1
3. Nc1ccccc1C(=O)Nc1ccc(Cl)cc1Cl
4. Nc1nc(N)c(N=Nc2ccc(C(=O)O)cc2)c(N)n1
5. CCOC(=O)C1=C(Nc2ccc(Br)cc2)C(=O)N(CC)C1
6. O=C1OC[C@H]2[C@H](c3ccc(O)c(O)c3)c3cc(O)c(O)cc3C[C@H]12

89
111
77.7
102
103
281

# return growth for each item in the list
1. CCOC(=O)C/C(C)=N\O
2. CCC(=O)Oc1ccc(OC)cc1
3. NC(=O)N/N=C\c1ccco1

1: 95.2; 2: 92.5; 3: 101

# return growth for each item in the list
1. OCCN(CCO)C(=S)S
2. COc1ccc(C(C)C=O)cc1 (stereo not given)
3. COc1cccc(COC(=O)Nc2ccccc2)c1OC
4. Cc1cccc(CO)c1
5. N#CCc1ccc([N+](=O)[O-])cc1
6. CC1CC(O)CC(C)(C)C1 (stereo not given)

1. 121
2. 93
3. 100
4. 106
5. 74.2
6. 100

---

Tested on: MOLT-4 leukemia
PROTOCOL SUMMARY: NCI-60 one-dose screen, 48 h (100 = growth as untreated, 0 = no growth, -100 = all killed)
CONDITION INFO: 10 µM
The panel holds about 83,000 compounds, 20% with a hit somewhere; the sample as a whole holds those more often.
VALUE TYPE: growth (%)
Numbers only, in %.

COMPOUND: O=[N+]([O-])c1ccc(N=Nc2ccccc2)cc1
VALUE TYPE: growth
UNIT OF MEASURE: %
TEST VALUE: 79.1

COMPOUND: COC(=O)c1cccnc1
VALUE TYPE: growth
UNIT OF MEASURE: %
TEST VALUE: 98.3

COMPOUND: O=C(O)CCCc1ccccc1
VALUE TYPE: growth
UNIT OF MEASURE: %
TEST VALUE: 98.4

COMPOUND: FC(F)(F)c1ccc2c(c1)N(CCCN1CCN(C3CC3)CC1)c1ccccc1S2
VALUE TYPE: growth
UNIT OF MEASURE: %
TEST VALUE: 34

COMPOUND: O=C(CCl)N1CCN(C/C=C/c2ccccc2)CC1
VALUE TYPE: growth
UNIT OF MEASURE: %
TEST VALUE: 71.4

COMPOUND: c1csc(-c2cc(-c3cc(-c4cccs4)[nH]n3)n[nH]2)c1
VALUE TYPE: growth
UNIT OF MEASURE: %
TEST VALUE: 97.7

COMPOUND: CCOc1ccc(Br)cc1/C=N\N=C\c1cc(Br)ccc1OCC
VALUE TYPE: growth
UNIT OF MEASURE: %
TEST VALUE: 102

COMPOUND: CCCNc1ccc(C2=NCCCN2)cc1
VALUE TYPE: growth
UNIT OF MEASURE: %
TEST VALUE: 93.7

# return growth for each item in the list
1. CCCCC/C=N/Nc1nc(C)cc(=O)[nH]1
2. CC(C)C1CCCCC1O (stereo not given)
3. O=C1N(C[P+](c2ccccc2)(c2ccccc2)c2ccccc2)CCCN1C[P+](c1ccccc1)(c1ccccc1)c1ccccc1

1. 95.3
2. 148
3. 97.7
